- protocol_notes: Storage of sodium arachidonate solution at room temperature for 6 weeks
- Format: physicochemical
- test_conditions: water; solution without additions, after 6 weeks at room temperature; read-out: arachidonic acid content

# compound, remaining at 1008 h
records = [
    ("CCCCC/C=C\\C/C=C\\C/C=C\\C/C=C\\CCCC(=O)O [sodium arachidonate]", "< 0.8%"),
]

----------
- system_under_test: enzyme (from seminal vesicles of sheep) (Ovis aries)
- Sequence (P05979 25-600): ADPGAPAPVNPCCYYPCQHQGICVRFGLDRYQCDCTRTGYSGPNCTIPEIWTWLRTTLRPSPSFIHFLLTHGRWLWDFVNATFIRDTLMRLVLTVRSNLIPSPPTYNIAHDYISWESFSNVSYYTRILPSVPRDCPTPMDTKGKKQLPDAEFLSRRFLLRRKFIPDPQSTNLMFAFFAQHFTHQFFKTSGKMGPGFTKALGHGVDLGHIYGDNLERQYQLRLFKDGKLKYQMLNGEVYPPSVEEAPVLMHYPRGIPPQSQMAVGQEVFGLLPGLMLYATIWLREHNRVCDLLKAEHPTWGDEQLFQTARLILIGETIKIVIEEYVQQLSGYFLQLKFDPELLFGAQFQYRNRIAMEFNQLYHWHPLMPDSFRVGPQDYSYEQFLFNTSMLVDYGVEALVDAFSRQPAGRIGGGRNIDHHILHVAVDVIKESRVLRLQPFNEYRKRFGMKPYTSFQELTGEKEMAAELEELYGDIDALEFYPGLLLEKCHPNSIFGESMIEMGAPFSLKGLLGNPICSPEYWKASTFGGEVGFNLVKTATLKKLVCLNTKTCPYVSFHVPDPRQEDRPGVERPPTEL
- test_conditions: seminal vesicle enzyme, 10 min, pH 8

# compound, relative total prostaglandin f
rows = [
    ("NCCc1c[nH]c2ccc(O)cc12", 10.6),
    ("C[C@@H]1O[C@@H](O[C@H]2[C@H](Oc3cc(O)c4c(c3)O[C@H](c3ccc(O)cc3)CC4=O)O[C@H](CO)[C@@H](O)[C@@H]2O)[C@H](O)[C@H](O)[C@H]1O", 2),
    ("N[C@@H](CCC(=O)N[C@@H](CS)C(=O)NCC(=O)O)C(=O)O", 13.5),
    ("CC(C)(CO)[C@@H](O)C(=O)NCCC(=O)NCCS [Example 46, Pantetheine, reference compound]", 0.95),
    ("O=c1c(O)c(-c2ccc(O)cc2)oc2cc(O)cc(O)c12", 0.5),
    ("NCC(O)c1ccc(O)c(O)c1 (centres unmarked)", 8.3),
    ("O=C(O)CCc1c[nH]c2ccc(O)cc12", 5.7),
    ("NC(Cc1c[nH]c2ccccc12)C(=O)O (centres unmarked)", 9.8),
]
